Compiled notes: published Ki values involving Caspase-1 (Homo sapiens).
ENDPOINT_NAME: Ki (nM)

CC(=O)NC(Cc1ccc(O)cc1)C(=O)NC(CCC(=O)O)C(=O)NC(C(=O)NC(CC(=O)O)C(=O)CNS(=O)(=O)CC12CCC(CC1=O)C2(C)C)C(C)C (stereo not drawn)
0.11
COC(=O)CC1CCCC2CC(=O)N(OCC(=O)[C@H](CC(=O)O)NC(=O)OCc3ccccc3)C12 (stereo partly drawn)
15000

I. CC(NC(=O)C(NC(=O)OCc1ccccc1)C(C)C)C(=O)NC(CC(=O)O)C(=O)CON1C(=O)Cc2ccccc21 (stereo not drawn)
II. Cc1ccccc1Oc1c(C)cccc1S(=O)(=O)NC(C=O)CC(=O)O (stereo not drawn)
// which entry reports the smaller Ki, I or II ? In your reply, give the label of the chosen option. I
(I: 2 nM, II: 300 nM)

###

pKi: −log10 of the molar value.
// cross-study collection: pKi for Caspase-1 (Homo sapiens, UniProt P29466)

// solved cases for pKi follow
CC(C)(C)[C@H](NC(=O)c1cccc(OCC2CC2)c1Cl)C(=O)N1CCC[C@H]1C(=O)N[C@H](C=O)CC(=O)O
> 8.00
CC(C)[C@H](NC(=O)c1ccccc1Cl)C(=O)N1CCC[C@H]1C(=O)N[C@H](C=O)CC(=O)O
> 8.00
CC(C)(C)[C@H](NC(=O)c1nccc2ccccc12)C(=O)N1[C@@H]2CC[C@@H](C2)[C@H]1C(=O)N[C@H](C=O)CC(=O)O (stereo in doubt)
7.70 to 8.00

What pKi value was documented for this molecule, Cc1cccc(C(=O)N[C@H](C(=O)N2CCC[C@H]2C(=O)N[C@H](C=O)CC(=O)O)C(C)(C)C)c1Cl ? > 8.00

Let us now turn to CC1(C)C2CC[C@]1(CS(=O)(=O)NCC(=O)C(CC(=O)O)NC(=O)OCc1ccccc1)C(=O)C2 (some centres unmarked) 4.52

Also, CC(C)Oc1ccc(C(=O)N[C@H](C(=O)N2CCC[C@H]2C(=O)N[C@H](C=O)CC(=O)O)C(C)C)c(Cl)c1 please. > 8.00

And what about the molecule Cc1cccc(-c2ccccc2S(=O)(=O)NC(C=O)CC(=O)O)c1 (centres unmarked) ? 4.51
